Biological target: human recombinant 5-HT2C receptor (Homo sapiens, UniProt P28335)
Construct: expressed in transfected cells; host or cells: Jump-In HEK cells (membrane preparation)
Sequence (P28335 33-458): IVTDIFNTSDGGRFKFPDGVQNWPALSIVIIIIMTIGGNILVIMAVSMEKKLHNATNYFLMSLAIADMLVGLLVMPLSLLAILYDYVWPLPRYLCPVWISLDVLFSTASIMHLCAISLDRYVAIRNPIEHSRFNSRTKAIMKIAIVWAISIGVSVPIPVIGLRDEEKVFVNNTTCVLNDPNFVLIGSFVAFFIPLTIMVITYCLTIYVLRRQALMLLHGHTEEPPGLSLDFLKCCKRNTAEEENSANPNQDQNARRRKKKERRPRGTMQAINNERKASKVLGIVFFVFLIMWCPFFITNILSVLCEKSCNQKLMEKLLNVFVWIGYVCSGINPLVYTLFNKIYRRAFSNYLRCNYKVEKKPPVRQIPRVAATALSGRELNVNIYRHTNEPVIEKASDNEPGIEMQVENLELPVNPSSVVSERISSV
Experiment: Test Example 2: 5-HT2C receptor binding inhibition test ([3H]-Mesulergine; non-specific ligand Serotonin HCl)
Details: human serotonin 5-HT2C receptor binding activity
endpointLabel: pKi
Reminder that pKi is minus the log10 of a molar concentration.

Worked examples follow.
[
  {
    "smiles": "Cc1cc(C(F)(F)F)cnc1Nc1cc(-c2c(C)cnn2C)c(OCCO)cn1",
    "reading": 8.72
  },
  {
    "smiles": "Cc1nc(COC(F)F)nc(C)c1-c1cc(Nc2ncc(C(F)(F)F)cc2Cl)ncc1OCCO",
    "reading": 8.74
  },
  {
    "smiles": "C[C@H](CO)Oc1cnc(Nc2ncc(C(F)(F)F)cc2F)cc1-c1cccc2c1CNC2=O",
    "reading": 7.60
  },
  {
    "smiles": "COCc1nc(C)c(-c2cc(Nc3ncc(-c4cnc(C(F)(F)F)nc4)cc3Cl)ncc2OCCO)c(C)n1",
    "reading": 8.85
  },
  {
    "smiles": "Cc1nc(C2CC2)nc(C)c1-c1cc(Nc2ncc(C(F)(F)F)cc2Cl)ncc1OCCO",
    "reading": 8.75
  },
  {
    "smiles": "Cn1ncc(Br)c1-c1nc(Nc2ccc(OC(F)F)cn2)c(F)cc1OCCO",
    "reading": 8.63
  },
  {
    "smiles": "COCc1nc(C)c(-c2cc(Nc3ncc(OCC(F)(F)F)cc3Cl)ncc2OCCO)c(C)n1",
    "reading": 8.22
  },
  {
    "smiles": "Cc1nc(C)c(-c2cc(Nc3ncc(Cl)cc3C)c(F)cc2OCCO)c(C)n1",
    "reading": 8.29
  },
  {
    "smiles": "Cn1ncc(Cl)c1-c1cc(Nc2ccc(OCC(F)(F)F)cn2)ncc1OCCO",
    "reading": 8.86
  },
  {
    "smiles": "COCc1nc(C)c(-c2cc(Nc3ncc(-c4ccc(F)cc4F)cc3Cl)ncc2OCCO)c(C)n1",
    "reading": 9.49
  }
]

# value lookup — system human recombinant 5-HT2C receptor (Homo sapiens, UniProt P28335), readout pKi, item Cn1ncc(Br)c1-c1cc(Nc2ncc(OC(F)(F)F)cc2F)c(F)cc1OCCO
9.79

Recall the recorded pKi for Cn1ncc(Br)c1-c1nc(Nc2ccc(Cl)cc2)ncc1OCCO with human recombinant 5-HT2C receptor (Homo sapiens, UniProt P28335) and state it.
8.60

Lab note: need pKi with human recombinant 5-HT2C receptor (Homo sapiens, UniProt P28335) for entry Cn1ncc(Br)c1-c1cc(Nc2ncc(C(F)(F)F)cc2F)ncc1OC(F)(F)CO , please look it up.
9.13

pKi of Cc1cnn(C)c1-c1nc(Nc2ccc(C(F)(F)F)cc2)c(F)cc1OCCO on human recombinant 5-HT2C receptor (Homo sapiens, UniProt P28335)?
8.62

pKi of Cn1ncc(Br)c1-c1cc(Nc2ncc(Cl)cn2)ncc1OCCO on human recombinant 5-HT2C receptor (Homo sapiens, UniProt P28335)?
8.35

# returns recorded pKi (system: human recombinant 5-HT2C receptor (Homo sapiens, UniProt P28335)) for Cn1ncc(Br)c1-c1cc(Nc2ccc(Cl)cn2)ncc1OCCO
8.68

Hello, I am looking for reported pKi with human recombinant 5-HT2C receptor (Homo sapiens, UniProt P28335) for COCc1nc(C)c(-c2cc(Nc3ncc(-c4ccn(C(F)F)n4)cc3Cl)ncc2OCCO)c(C)n1 . Could you help?
8.14

So what pKi did Cn1ncc(Br)c1-c1nc(Nc2ccc(OC(F)(F)F)cc2)ncc1OCCO get with human recombinant 5-HT2C receptor (Homo sapiens, UniProt P28335)?
8.97

Any idea what pKi came out for COCc1nc(C)c(-c2cc(Nc3ncc(C(F)(F)F)cc3F)c(F)cc2OCCO)c(C)n1 on human recombinant 5-HT2C receptor (Homo sapiens, UniProt P28335)?
8.53

Entry Cc1nc(C)c(-c2cc(Nc3ncc(C(F)(F)F)cc3C)c(F)cc2OCCO)c(C)n1 , system human recombinant 5-HT2C receptor (Homo sapiens, UniProt P28335): what pKi was measured?
8.50

API: value(readout= pKi, system= human recombinant 5-HT2C receptor (Homo sapiens, UniProt P28335), query= Cc1nc(C)c(-c2cc(Nc3ncc(Cl)cc3F)c(F)cc2OCCO)c(C)n1 )
8.25

* * *

target: human recombinant 5-HT2A receptor (Homo sapiens); construct: expressed in transfected cells; host or cells: Jump-In HEK cells (membrane preparation); test: Test Example 1-2: 5-HT2A receptor binding inhibition test ([3H]-Ketanserin; non-specific ligand Ketanserin); settings: [3H]-Ketanserin; non-specific binding with 500 µmol/L Ketanserin; room temperature (25°C), 1.5 hours; read-out: h 5-HT2A Ki
endpointLabel: log10 Ki (log10 of the value in nM)
On a log10 scale: recorded Ki, unit nM.

Illustrative cases are given below, each with its answer.
[
  {
    "smiles": "COCc1nc(C)c(-c2cc(Nc3ncc(-c4ccn(C(F)F)n4)cc3Cl)ncc2OCCO)c(C)n1",
    "target": "human recombinant 5-HT2A receptor (Homo sapiens)",
    "reading": 0.80
  },
  {
    "smiles": "Cn1ncc(Br)c1-c1nc(Nc2ccc(Cl)cc2Cl)ncc1OCCO",
    "target": "human recombinant 5-HT2A receptor (Homo sapiens)",
    "reading": -0.59
  },
  {
    "smiles": "Cn1ncc(Br)c1-c1nc(Nc2ccc(C(F)(F)F)cn2)c(Cl)cc1OCCO",
    "target": "human recombinant 5-HT2A receptor (Homo sapiens)",
    "reading": -0.50
  },
  {
    "smiles": "Cn1ncc(Br)c1-c1cc(Nc2ccc(C3CC3)cn2)cnc1OCCO",
    "target": "human recombinant 5-HT2A receptor (Homo sapiens)",
    "reading": -0.59
  },
  {
    "smiles": "Cn1ncc(Br)c1-c1nc(Nc2nc3ccc(F)cc3s2)c(F)cc1OCCO",
    "target": "human recombinant 5-HT2A receptor (Homo sapiens)",
    "reading": -0.44
  },
  {
    "smiles": "Cn1ncc(Cl)c1-c1cc(Nc2ncc(OCC(F)F)cc2F)ncc1OCCO",
    "target": "human recombinant 5-HT2A receptor (Homo sapiens)",
    "reading": -0.52
  },
  {
    "smiles": "Cn1ncc(Br)c1-c1cc(Nc2nc3ccccc3n2C)ccc1OCCO",
    "target": "human recombinant 5-HT2A receptor (Homo sapiens)",
    "reading": -0.71
  }
]

# lookup: log10 Ki of Cc1nc(C)c(-c2cc(Nc3ccc(-c4ccc(C(F)(F)F)nc4)cn3)ncc2OCCO)c(C)n1
0.08

* * *

molecular target: human recombinant 5-HT2A receptor (Homo sapiens, UniProt P28223); construct: expressed in transfected cells; host or cells: Jump-In HEK cells (membrane preparation); assay: Test Example 1-2: 5-HT2A receptor binding inhibition test ([3H]-Ketanserin; non-specific ligand Ketanserin); settings: [3H]-Ketanserin; non-specific binding with 500 µmol/L Ketanserin; room temperature (25°C), 1.5 hours; read-out: h 5-HT2A Ki
Sequence (P28223 whole entry): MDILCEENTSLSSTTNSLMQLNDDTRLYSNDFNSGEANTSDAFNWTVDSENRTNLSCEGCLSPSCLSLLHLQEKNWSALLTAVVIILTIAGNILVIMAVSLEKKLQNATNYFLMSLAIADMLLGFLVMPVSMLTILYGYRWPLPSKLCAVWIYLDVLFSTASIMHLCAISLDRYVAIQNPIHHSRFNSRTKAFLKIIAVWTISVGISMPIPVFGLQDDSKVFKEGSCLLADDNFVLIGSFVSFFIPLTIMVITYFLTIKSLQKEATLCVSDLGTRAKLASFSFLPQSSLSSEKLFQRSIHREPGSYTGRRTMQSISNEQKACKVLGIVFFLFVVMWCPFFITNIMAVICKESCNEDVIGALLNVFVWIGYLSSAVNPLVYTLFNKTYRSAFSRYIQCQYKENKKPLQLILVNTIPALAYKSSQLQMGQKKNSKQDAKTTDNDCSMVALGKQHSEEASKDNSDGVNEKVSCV
endpointLabel: pKi
Here pKi is given on a logarithmic scale as minus log10 of the concentration in mol/L.

Below are worked cases with known answers.
[
  {
    "molecule": "Cn1nccc1-c1cc(Nc2ncc(C(F)(F)F)cc2F)ncc1OCCO [Compound I-059]",
    "pKi": 9.35
  },
  {
    "molecule": "COCc1nc(C)c(-c2cc(Nc3ncc(-c4ccc(C(F)F)cc4)cc3Cl)ncc2OCCO)c(C)n1 [Compound I-242]",
    "pKi": 9.59
  },
  {
    "molecule": "Cc1nc(C)c(-c2cc(Nc3ncc(-c4ccc(F)cc4)cc3F)ncc2OCCO)c(C)n1 [Compound I-316]",
    "pKi": 9.30
  },
  {
    "molecule": "Cn1ncc(Br)c1-c1cc(Nc2ccc(OC3CC3)cn2)ncc1OCCO [Compound I-185]",
    "pKi": 9.38
  },
  {
    "molecule": "Cn1ncc(Br)c1-c1cc(Nc2ccc(OC(C)(F)F)cn2)ncc1OCCO [Compound I-301]",
    "pKi": 9.72
  }
]

Report pKi for Cc1nc(COCC(F)F)nc(C)c1-c1cc(Nc2ncc(C(F)(F)F)cc2Cl)ncc1OCCO [Compound I-375] please.
8.90

Given Cc1cnn(C)c1-c1cc(Nc2ncc(Cl)cc2F)ncc1OCCO [Compound I-088] , state its recorded pKi.
9.57

Quick one: pKi of Cn1ncc(Br)c1-c1cc(Nc2ncc(-c3ccccc3)s2)ccc1OCCO [Compound I-039] ?
9.50

The measured values listed here are drawn from patent EP4631938A1.
